testProtocol: Partitioning tracer column experiment, Ottawa sand contaminated with TCE, air carrier (Example 3)
assayConditions: in TCE, 0.45 cc/min, Ottawa sand; ideal Ki / experimental Ki
Listed here: items and their measured Activity Coefficient, γi.

compound	Activity Coefficient, γi
FC1(F)C(F)(F)C(F)(F)C1(F)F [C4 F8, Octafluorocyclobutane]	26.6
FC(F)(F)C1(F)C(F)(F)C(F)(F)C(F)(F)C(F)(C(F)(F)F)C1(F)F (centres unmarked) [C8 F16, perfluoro-1,3-dimethylcyclohexane]	63.1
FC1=C(F)C(F)(F)C(F)(F)C1(F)F [C5 F8, Octafluorocyclopentene]	20.3
FS(F)(F)(F)(F)F [SF6, Sulfur Hexafluoride]	11.6
FC(F)(F)C1(F)C(F)(F)C(F)(F)C(F)(F)C(F)(F)C1(F)F [C7 F14, perfluoromethylcyclohexane]	58.3
